Target: pufferfish Tas1r1/Tas1r3LBD ("wild-type", free-cysteine eliminated) (Takifugu rubripes, UniProt Q2MHJ8+Q2MHK1, Q2MHJ8:C238S/Q2MHK1:C242S/Q2MHK1:Y385F)
Construct: Tas1r1 Met1-Ser501 with C-terminal PA tag, Tas1r3 Met1-Ser496 with C-terminal FLAG tag; Endo H treated for crystals
Sequence (Q2MHJ8 entry or part of it C238S): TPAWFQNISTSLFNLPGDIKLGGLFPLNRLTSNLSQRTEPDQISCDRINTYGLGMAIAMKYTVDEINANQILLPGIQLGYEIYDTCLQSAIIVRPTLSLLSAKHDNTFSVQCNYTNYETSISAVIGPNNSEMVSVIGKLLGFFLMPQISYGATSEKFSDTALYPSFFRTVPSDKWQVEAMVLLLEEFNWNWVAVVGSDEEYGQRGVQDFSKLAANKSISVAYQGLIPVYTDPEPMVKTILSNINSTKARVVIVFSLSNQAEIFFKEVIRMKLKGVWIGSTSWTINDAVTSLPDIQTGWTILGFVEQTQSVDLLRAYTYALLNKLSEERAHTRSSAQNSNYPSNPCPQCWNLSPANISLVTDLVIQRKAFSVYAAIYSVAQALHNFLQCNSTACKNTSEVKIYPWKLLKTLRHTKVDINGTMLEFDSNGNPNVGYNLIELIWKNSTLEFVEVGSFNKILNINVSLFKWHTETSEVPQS
Sequence (Q2MHK1 entry or part of it C242S/Y385F): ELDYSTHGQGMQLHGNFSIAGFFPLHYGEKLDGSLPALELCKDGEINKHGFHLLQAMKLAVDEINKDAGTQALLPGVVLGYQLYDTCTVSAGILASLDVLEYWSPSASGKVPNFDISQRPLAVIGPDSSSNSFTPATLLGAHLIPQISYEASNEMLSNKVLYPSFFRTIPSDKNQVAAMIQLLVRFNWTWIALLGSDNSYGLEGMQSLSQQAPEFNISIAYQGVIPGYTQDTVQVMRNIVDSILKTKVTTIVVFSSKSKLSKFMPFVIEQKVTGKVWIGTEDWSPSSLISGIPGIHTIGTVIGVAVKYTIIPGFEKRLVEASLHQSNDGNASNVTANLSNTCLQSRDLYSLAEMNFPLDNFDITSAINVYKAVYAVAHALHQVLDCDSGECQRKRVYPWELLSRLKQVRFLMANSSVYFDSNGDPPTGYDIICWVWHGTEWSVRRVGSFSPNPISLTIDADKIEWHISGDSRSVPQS
Assay: differential scanning fluorimetry
Conditions: read-out: Kd-app
measurement_label: Kd (µM)

A = C[C@@H](N)C(=O)O
B = C[C@H](N)C(=O)O
Exercise: // compare: A vs B , metric Kd, want the smaller Provide the label of your selected option as the answer.
Key: B

###

Biological target: pufferfish Tas1r1/Tas1r3LBD ("wild-type", free-cysteine eliminated) (Takifugu rubripes, UniProt Q2MHJ8+Q2MHK1, Q2MHJ8:C238S/Q2MHK1:C242S/Q2MHK1:D306A)
Construct: Tas1r1 Met1-Ser501 with C-terminal PA tag, Tas1r3 Met1-Ser496 with C-terminal FLAG tag; Endo H treated for crystals
Sequence (Q2MHJ8 entry or part of it C238S): as the sequence (Q2MHJ8 entry or part of it C238S) above
Sequence (Q2MHK1 entry or part of it C242S/D306A): as the sequence (Q2MHK1 entry or part of it C242S/Y385F) above, with D282A, F361Y counted along it
Assay: differential scanning fluorimetry
Settings: read-out: Kd-app
measurement_label: Kd (µM)

P = C[C@@H](N)C(=O)O [D-alanine]
Q = C[C@H](N)C(=O)O [L-alanine]
Exercise: // compare: P vs Q , metric Kd, want the smaller Provide the label of your selected option as the answer.
Key: Q

###

Target: pufferfish Tas1r1/Tas1r3LBD ("wild-type", free-cysteine eliminated) (Takifugu rubripes, UniProt Q2MHJ8+Q2MHK1, Q2MHJ8:C238S/Q2MHK1:C242S)
Construct: Tas1r1 Met1-Ser501 with C-terminal PA tag, Tas1r3 Met1-Ser496 with C-terminal FLAG tag; Endo H treated for crystals
Test: differential scanning fluorimetry
Conditions: read-out: Kd-app
measurement_label: Kd (µM)

CC(C)(N)C(=O)O :: 1290

P = CN[C@@H](C)C(=O)O
Q = C[C@@H](N)C(=O)O
R = C[C@H](N)C(=O)O
Exercise: Order by Kd, ascending. Could you list the labels in the order requested?
Key: R, P, Q
(R: 126 µM, P: 345 µM, Q: 1440 µM)
